# self-splicing fitness (ln) annotations
assay.text: self-splicing fitness, log relative to wild type (ln ratio); higher = more splicing; Tetrahymena group I intron in knt gene, E. coli kanamycin selection, DiMSum; sequences stand for … in CUCUCU…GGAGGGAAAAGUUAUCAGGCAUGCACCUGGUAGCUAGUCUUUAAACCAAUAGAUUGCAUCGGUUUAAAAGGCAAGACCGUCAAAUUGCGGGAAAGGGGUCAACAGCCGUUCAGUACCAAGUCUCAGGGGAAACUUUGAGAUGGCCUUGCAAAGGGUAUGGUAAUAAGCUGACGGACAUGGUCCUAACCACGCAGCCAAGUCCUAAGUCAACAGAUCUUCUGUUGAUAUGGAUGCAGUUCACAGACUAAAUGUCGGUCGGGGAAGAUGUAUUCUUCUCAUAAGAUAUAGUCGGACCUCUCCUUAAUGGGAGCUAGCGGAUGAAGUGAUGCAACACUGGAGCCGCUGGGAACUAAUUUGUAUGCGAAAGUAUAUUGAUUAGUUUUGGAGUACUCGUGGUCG;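 also: selection with 25 µg/mL kanamycin versus none on LB agar overnight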
cond: 37 °C
Write the number on its own, no unit after it.

Example entries and their recorded answers appear below.
GUCUAGCAAUAUUACGUGAC ... -0.257
GUGAAGCAAUAUUACGUUGG ... -1.65
UUGGAGCAAUAUUACGAAGA ... -2.53
CCGCAGCAAUAUUACGGAUC ... -2.39
UUCAAGCAAUAUUACGCGGA ... -2.09

For `ACGUAGCAAUAUUACGUGUU` , what is its reported self-splicing fitness (ln)?
-2.37

Which self-splicing fitness (ln) is reported for this sequence? `GCCGAGCAAUAUUACGUUAG`
-2.65

If you can, please state the reported self-splicing fitness (ln) value of `UUUGAGCAAUAUUACGGAAG` .
-1.41

* * *

# reported self-splicing fitness (ln); entries follow
assay.text: self-splicing fitness, log relative to wild type (ln ratio); higher = more splicing; Tetrahymena group I intron in knt gene, E. coli kanamycin selection, DiMSum; sequences stand for … in CUCUCU…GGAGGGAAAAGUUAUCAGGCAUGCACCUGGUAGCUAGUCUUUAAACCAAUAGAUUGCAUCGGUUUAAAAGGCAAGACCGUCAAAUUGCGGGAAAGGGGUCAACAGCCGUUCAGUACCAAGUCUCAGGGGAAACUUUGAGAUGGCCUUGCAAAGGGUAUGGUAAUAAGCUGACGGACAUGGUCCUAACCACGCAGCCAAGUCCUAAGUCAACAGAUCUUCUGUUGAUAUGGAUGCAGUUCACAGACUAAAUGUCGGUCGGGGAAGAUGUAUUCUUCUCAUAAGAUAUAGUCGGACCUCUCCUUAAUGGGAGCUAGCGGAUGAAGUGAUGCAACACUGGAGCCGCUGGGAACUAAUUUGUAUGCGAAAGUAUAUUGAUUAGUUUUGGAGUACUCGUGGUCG
cond: 37 °C
Give the figure only, with no unit attached.

Before answering, review these 5 worked examples.
UAUUAGCAAUAUUACGUUCU ... -1.19
UCAUAGCAAUAUUACGAAUG ... -1.83
GUCGAGCAAUAUUACGGGGA ... -1.39
CUUCAGCAAUAUUACGGCUC ... -2.51
GUCAAGCAAUAUUACGGGCU ... -4.77

Item under review: `UGGGAGCAAUAUUACGGGUA` . Reported self-splicing fitness (ln)?
-2.33

Reported self-splicing fitness (ln) for `AACCAGCAAUAUUACGCGCC` : what is it?
-0.521

Please look up its self-splicing fitness (ln): `AUCGAGCAAUAUUACGGCCA`
-1.47

Consider the sequence shown here: `AAGCAGCAAUAUUACGAAUU` What is its recorded self-splicing fitness (ln)?
0.12

# lookup: self-splicing fitness (ln) of `GCACAGCAAUAUUACGGCAC`
-0.122

* * *

assay.text: self-splicing fitness, log relative to wild type (ln ratio); higher = more splicing; Tetrahymena group I intron in knt gene, E. coli kanamycin selection, DiMSum; sequences stand for … in CUCUCU…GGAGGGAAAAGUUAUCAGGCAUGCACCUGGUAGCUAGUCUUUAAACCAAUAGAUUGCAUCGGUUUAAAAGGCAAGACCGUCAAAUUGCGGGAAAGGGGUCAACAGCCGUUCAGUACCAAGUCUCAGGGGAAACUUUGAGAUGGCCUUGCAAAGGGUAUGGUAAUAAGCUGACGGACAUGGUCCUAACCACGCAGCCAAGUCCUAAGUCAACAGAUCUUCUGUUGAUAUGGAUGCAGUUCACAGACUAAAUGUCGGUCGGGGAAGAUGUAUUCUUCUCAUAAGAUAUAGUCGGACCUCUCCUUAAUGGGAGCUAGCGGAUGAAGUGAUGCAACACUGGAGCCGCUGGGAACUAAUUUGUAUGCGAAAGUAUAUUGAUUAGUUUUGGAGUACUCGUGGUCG
cond: 30 °C
Please enter satisfied where self-splicing fitness (ln) is greater than or equal to -2, and not satisfied where it is lower.

Worked set:
GGAAAGCAAUAUUACGAGUC ... satisfied
AUUUAGCAAUAUUACGCGUA ... satisfied

Please check the record `GUCAAGCAAUAUUACGAACA` and state if its self-splicing fitness (ln) is at or above -2.
not satisfied

* * *

assay.text: self-splicing fitness, log relative to wild type (ln ratio); higher = more splicing; Tetrahymena group I intron in knt gene, E. coli kanamycin selection, DiMSum; sequences stand for … in CUCUCU…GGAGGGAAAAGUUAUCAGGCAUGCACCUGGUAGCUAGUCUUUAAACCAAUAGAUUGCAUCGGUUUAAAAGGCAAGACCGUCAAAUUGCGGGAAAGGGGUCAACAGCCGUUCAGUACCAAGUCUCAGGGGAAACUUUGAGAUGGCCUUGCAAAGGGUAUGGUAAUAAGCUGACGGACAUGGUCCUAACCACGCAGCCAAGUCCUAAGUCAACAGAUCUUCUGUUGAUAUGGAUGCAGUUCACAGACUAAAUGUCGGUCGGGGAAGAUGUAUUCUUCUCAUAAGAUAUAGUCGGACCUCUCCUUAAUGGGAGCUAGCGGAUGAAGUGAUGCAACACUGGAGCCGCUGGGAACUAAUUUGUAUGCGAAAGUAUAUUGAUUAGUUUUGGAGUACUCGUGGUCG
cond: 37 °C
Note to self: values exactly at -2 are Met. So self-splicing fitness (ln) at or above -2 is Met, below is Not met.

Confirm if self-splicing fitness (ln) reported for the sequence `GAACAGCAAUAUUACGGUUA` is -2 or above.
Met

For this sequence, is measured self-splicing fitness (ln) -2 or higher? `GAUUAGCAAUAUUACGUCAA`
Met

* * *

assay.text: self-splicing fitness, log relative to wild type (ln ratio); higher = more splicing; Tetrahymena group I intron in knt gene, E. coli kanamycin selection, DiMSum; sequences stand for … in CUCUCU…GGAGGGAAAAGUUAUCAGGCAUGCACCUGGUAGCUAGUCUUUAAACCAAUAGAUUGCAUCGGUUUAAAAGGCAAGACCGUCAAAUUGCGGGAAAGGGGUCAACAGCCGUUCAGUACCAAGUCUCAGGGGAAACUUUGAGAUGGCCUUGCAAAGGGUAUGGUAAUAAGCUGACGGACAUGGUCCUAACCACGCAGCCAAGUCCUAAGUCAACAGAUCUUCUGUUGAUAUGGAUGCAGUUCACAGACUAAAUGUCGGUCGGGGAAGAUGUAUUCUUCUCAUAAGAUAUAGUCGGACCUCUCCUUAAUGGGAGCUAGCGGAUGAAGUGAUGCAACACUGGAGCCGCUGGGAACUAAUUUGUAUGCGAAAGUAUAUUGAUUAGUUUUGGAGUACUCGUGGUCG
cond: 37 °C
observed.property: self-splicing fitness (ln)
The reply should be a number, written without any unit.

UUGUAGCAAUAUUACGUUUA ... -1.15
CUCUAGCAAUAUUACGGAUA ... -2.71
ACGAAGCAAUAUUACGAUUG ... -0.909
CUGCAGCAAUAUUACGUGCG ... -1.26
CCAUAGCAAUAUUACGGGUU ... -3.79
ACGCAGCAAUAUUACGACGA ... 0.113

Returns the measured self-splicing fitness (ln) for the input sequence. Input: `UGUGAGCAAUAUUACGUAGU`
-3.06

Value lookup for self-splicing fitness (ln); key = `AAGUAGCAAUAUUACGUGGU`
-1.93

Fill in the blank: the reported self-splicing fitness (ln) of `UGCUAGCAAUAUUACGUUGU` is ____.
-3.8

* * *

assay.text: self-splicing fitness, log relative to wild type (ln ratio); higher = more splicing; Tetrahymena group I intron in knt gene, E. coli kanamycin selection, DiMSum; sequences stand for … in CUCUCU…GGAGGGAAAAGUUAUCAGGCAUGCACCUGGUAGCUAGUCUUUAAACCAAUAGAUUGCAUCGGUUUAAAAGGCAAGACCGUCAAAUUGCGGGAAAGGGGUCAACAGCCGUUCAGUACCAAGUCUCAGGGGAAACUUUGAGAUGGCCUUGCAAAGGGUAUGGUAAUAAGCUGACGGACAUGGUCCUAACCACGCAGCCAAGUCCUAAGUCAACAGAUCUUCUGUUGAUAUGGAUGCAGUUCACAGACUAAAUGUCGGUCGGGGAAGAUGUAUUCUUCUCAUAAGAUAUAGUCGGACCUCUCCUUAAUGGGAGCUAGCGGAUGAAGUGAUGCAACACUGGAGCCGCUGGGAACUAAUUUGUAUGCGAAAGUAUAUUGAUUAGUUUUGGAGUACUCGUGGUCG
cond: 30 °C
observed.property: self-splicing fitness (ln)
Could you respond with only the numeric value?

Some solved entries appear below for comparison.
GCAGAGCAAUAUUACGUUAG ... -3.42
UGCGAGCAAUAUUACGCGCG ... -2.71
GGUGAGCAAUAUUACGCCGA ... -2.06
UAUCAGCAAUAUUACGGCCU ... -1.64

Find the recorded self-splicing fitness (ln) belonging to `CUUGAGCAAUAUUACGGGAG` and report it.
-3.95

Give the measured self-splicing fitness (ln) of `UUCUAGCAAUAUUACGACGC` .
-2.76

Fill blank: measured self-splicing fitness (ln) of the sequence `UUUAAGCAAUAUUACGCGCA` is ____.
-0.212

Which value of self-splicing fitness (ln) has been reported for `GCACAGCAAUAUUACGGGUC` in the records?
-3.81

Reported self-splicing fitness (ln) for `UUUAAGCAAUAUUACGUUUA` : what is it?
-2.69

What self-splicing fitness (ln) value was documented for this sequence, `AGCGAGCAAUAUUACGUACC` ?
-0.987

Which self-splicing fitness (ln) is listed for `CGCCAGCAAUAUUACGCCAA` ?
-1.59

Using the record for `AGAAAGCAAUAUUACGUGCG` , report its self-splicing fitness (ln).
-0.896

If you can, please state the reported self-splicing fitness (ln) value of `CCCUAGCAAUAUUACGUAUU` .
-3.8

Entry under review: `CCUCAGCAAUAUUACGAAGC` . Reported self-splicing fitness (ln)?
-2.92

Name the reported self-splicing fitness (ln) value associated with the sequence `CAUAAGCAAUAUUACGCCCA`
-2.14

All values here come from the supplement of paper PMC7877785.
